Cited source: patent US12637465B2

Parameter: Purity (Area %). Scope: all listed entries.
assayName: Solid form stability study of salts and/or co-crystals at 25° C./60% RH and 40° C./75% RH
Format: physicochemical
runParameters: 1 week, 40° C./75% RH

molecule	units	Purity (Area %)
C[C@H](O)C(=O)C1=Nc2c(nc(N)[nH]c2=O)NC1 [HCI, sepiapterin]	Area %	89.25
C[C@H](O)C(=O)C1=Nc2c(nc(N)[nH]c2=O)NC1 [Toluenesulfonate, sepiapterin]	Area %	89.11
C[C@H](O)C(=O)C1=Nc2c(nc(N)[nH]c2=O)NC1 [Methanesulfonate, sepiapterin]	Area %	88.68
